- Test system: Avi-KRAS G12C (1-169) GppNHp/RAF1 RBD-3×FLAG (52-151) (Homo sapiens, UniProt P01116, G12C)
- Construct: Avi-KRAS G12C (1-169) GppNHp/RAF1 RBD-3×FLAG (52-151)
- Sequence (P01116 1-169 isoform P01116-2 G12C limits assumed): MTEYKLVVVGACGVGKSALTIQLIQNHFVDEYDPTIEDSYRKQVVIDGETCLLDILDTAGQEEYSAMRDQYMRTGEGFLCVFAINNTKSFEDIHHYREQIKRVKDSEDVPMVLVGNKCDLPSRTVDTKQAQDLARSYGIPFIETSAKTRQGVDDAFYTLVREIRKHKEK
- Test protocol: Raf1 RBD-KRAS G12C-GppNHp disruption (protein:protein interaction HTRF assay)
pIC50: −log10 of the molar value.

Molecule: C=CC(=O)N1C[C@H](Oc2nc(OC[C@@]34CCCN3C[C@H](F)C4)nc3c(F)c(-c4ccc(F)c5sc(N)c(C#N)c45)c(C(F)(F)F)cc23)[C@@H](F)C1
Test system: Avi-KRAS G12C (1-169) GppNHp/RAF1 RBD-3×FLAG (52-151) (Homo sapiens, UniProt P01116, G12C)
pIC50: ≥ 6.30
//
Molecule: C=CC(=O)N1CC[C@@H](Oc2nc(OC[C@@]34CCCN3C[C@H](F)C4)nc3c(F)c(-c4ccc(F)c5sc(N)nc45)c(Cl)cc23)C1 (atropisomer, axis not shown) [Compound 10]
Test system: Avi-KRAS G12C (1-169) GppNHp/RAF1 RBD-3×FLAG (52-151) (Homo sapiens, UniProt P01116, G12C)
pIC50: 5.30 to 6.30
//
Molecule: C=CC(=O)N1C[C@@H](F)[C@@H](Oc2nc(OC[C@@]34CCCN3C[C@H](F)C4)nc3cc(-c4ccc(F)c5sc(N)c(C#N)c45)c(C(F)(F)F)cc23)C1
Test system: Avi-KRAS G12C (1-169) GppNHp/RAF1 RBD-3×FLAG (52-151) (Homo sapiens, UniProt P01116, G12C)
pIC50: ≥ 6.30
//
Molecule: C=CC(=O)N1C[C@H](Oc2nc(OC[C@@]34CCCN3C[C@H](F)C4)nc3cc(-c4ccc(F)c5sc(N)c(C#N)c45)c(C(F)(F)F)nc23)C[C@H]1C [Compound 84]
Test system: Avi-KRAS G12C (1-169) GppNHp/RAF1 RBD-3×FLAG (52-151) (Homo sapiens, UniProt P01116, G12C)
pIC50: ≥ 6.30
//
Molecule: C=CC(=O)N1CC[C@@H](Oc2nc(OC[C@@]34CCCN3C[C@H](F)C4)nc3c(Cl)c(-c4ccc(F)c5sc(N)c(C#N)c45)ncc23)[C@@H]1C
Test system: Avi-KRAS G12C (1-169) GppNHp/RAF1 RBD-3×FLAG (52-151) (Homo sapiens, UniProt P01116, G12C)
pIC50: 5.30 to 6.30
//
Molecule: C=CC(=O)N1CC[C@@H](Oc2nc(OC[C@@]34CCCN3C[C@H](F)C4)nc3cc(-c4ccc(F)c5sc(N)c(C#N)c45)c(F)cc23)[C@H]1COC
Test system: Avi-KRAS G12C (1-169) GppNHp/RAF1 RBD-3×FLAG (52-151) (Homo sapiens, UniProt P01116, G12C)
pIC50: < 4.70
//
Molecule: C=CC(=O)N1C[C@H](Oc2nc(OC[C@@]34CCCN3C[C@H](F)C4)nc3c(F)c(-c4ccc(F)c5sc(N)c(C#N)c45)ncc23)[C@@H](F)C1
Test system: Avi-KRAS G12C (1-169) GppNHp/RAF1 RBD-3×FLAG (52-151) (Homo sapiens, UniProt P01116, G12C)
pIC50: ≥ 6.30
//
Molecule: C=CC(=O)N1CC[C@@H](Oc2nc(OC[C@@H]3CC4(CC4)CN3C)nc3c(F)c(-c4ccc(F)c5sc(N)nc45)c(C(F)(F)F)cc23)C1 (atropisomer, axis not shown) [Compound 24]
Test system: Avi-KRAS G12C (1-169) GppNHp/RAF1 RBD-3×FLAG (52-151) (Homo sapiens, UniProt P01116, G12C)
pIC50: ≥ 6.30
//
Molecule: C=CC(=O)N1CC[C@@H](Oc2nc(OC[C@@]34CCCN3C[C@H](F)C4)nc3cc(-c4ccc(F)c5sc(N)nc45)c(C(F)(F)F)cc23)[C@H]1C
Test system: Avi-KRAS G12C (1-169) GppNHp/RAF1 RBD-3×FLAG (52-151) (Homo sapiens, UniProt P01116, G12C)
pIC50: ≥ 6.30
//
Molecule: C=CC(=O)N1CC[C@@H](Oc2nc(OC[C@@]34CCCN3C[C@H](F)C4)nc3c(F)c(-c4ccc(F)c5sc(N)nc45)c(C(F)(F)F)cc23)[C@@H]1C (atropisomer, axis not shown) [Compound 41]
Test system: Avi-KRAS G12C (1-169) GppNHp/RAF1 RBD-3×FLAG (52-151) (Homo sapiens, UniProt P01116, G12C)
pIC50: ≥ 6.30
//
Molecule: C=CC(=O)N1CC[C@@H](Oc2nc(OC[C@@]34CCCN3C[C@H](F)C4)nc3c(F)c(-c4ccc(F)c5sc(N)c(C#N)c45)c(C(F)(F)F)cc23)[C@H]1COC (atropisomer, axis not shown) [Compound 96]
Test system: Avi-KRAS G12C (1-169) GppNHp/RAF1 RBD-3×FLAG (52-151) (Homo sapiens, UniProt P01116, G12C)
pIC50: 4.70 to 5.30
//
Molecule: C=CC(=O)N1C[C@H](Oc2nc(OC[C@@]34CCCN3C[C@H](F)C4)nc3c(F)c(-c4ccc(F)c5sc(N)nc45)c(C(F)(F)F)cc23)C[C@@H]1C (atropisomer, axis not shown) [Compound 32]
Test system: Avi-KRAS G12C (1-169) GppNHp/RAF1 RBD-3×FLAG (52-151) (Homo sapiens, UniProt P01116, G12C)
pIC50: ≥ 6.30
//
Molecule: C=CC(=O)N1CC[C@@H](Oc2nc(OC[C@@]34CCCN3C[C@H](F)C4)nc3c(F)c(-c4ccc(F)c5sc(N)c(C#N)c45)ncc23)C1
Test system: Avi-KRAS G12C (1-169) GppNHp/RAF1 RBD-3×FLAG (52-151) (Homo sapiens, UniProt P01116, G12C)
pIC50: ≥ 6.30
//
Molecule: C=CC(=O)N1CC[C@@H](Oc2nc(OC[C@@]34CCCN3C[C@H](F)C4)nc3c(F)c(-c4ccc(F)c5sc(N)nc45)c(C(F)(F)F)cc23)[C@H]1C
Test system: Avi-KRAS G12C (1-169) GppNHp/RAF1 RBD-3×FLAG (52-151) (Homo sapiens, UniProt P01116, G12C)
pIC50: ≥ 6.30
//
Molecule: C=CC(=O)N1C[C@@H](F)[C@@H](Oc2nc(OC[C@@]34CCCN3C[C@H](F)C4)nc3c(F)c(-c4ccc(F)c5sc(N)c(C#N)c45)c(Cl)cc23)C1
Test system: Avi-KRAS G12C (1-169) GppNHp/RAF1 RBD-3×FLAG (52-151) (Homo sapiens, UniProt P01116, G12C)
pIC50: ≥ 6.30
//
Molecule: C=CC(=O)N1CC[C@@H](Oc2nc(OC[C@@]34CCCN3C[C@H](F)C4)nc3c(F)c(-c4ccc(F)c5sc(N)nc45)c(C(F)(F)F)cc23)[C@@H]1C (atropisomer, axis not shown) [Compound 42]
Test system: Avi-KRAS G12C (1-169) GppNHp/RAF1 RBD-3×FLAG (52-151) (Homo sapiens, UniProt P01116, G12C)
pIC50: < 4.70
//
Molecule: C=CC(=O)N1CC[C@@H](Oc2nc(OC[C@@]34CCCN3C[C@H](F)C4)nc3c(F)c(-c4ccc(F)c5sc(N)c(C#N)c45)c(Cl)cc23)[C@@H]1COC
Test system: Avi-KRAS G12C (1-169) GppNHp/RAF1 RBD-3×FLAG (52-151) (Homo sapiens, UniProt P01116, G12C)
pIC50: 5.30 to 6.30
//
Molecule: C=CC(=O)N1C[C@H](Oc2nc(OC[C@@]34CCCN3C[C@H](F)C4)nc3cc(-c4ccc(F)c5sc(N)nc45)c(C(F)(F)F)cc23)[C@@H](F)C1
Test system: Avi-KRAS G12C (1-169) GppNHp/RAF1 RBD-3×FLAG (52-151) (Homo sapiens, UniProt P01116, G12C)
pIC50: ≥ 6.30
//
Molecule: C=CC(=O)N1CC[C@@H](Oc2nc(OC[C@@]34CCCN3C[C@H](F)C4)nc3c(F)c(-c4ccc(F)c5sc(N)c(C#N)c45)ccc23)[C@H]1C
Test system: Avi-KRAS G12C (1-169) GppNHp/RAF1 RBD-3×FLAG (52-151) (Homo sapiens, UniProt P01116, G12C)
pIC50: ≥ 6.30
//
Molecule: C=CC(=O)N1CCC[C@@H](Oc2nc(OC[C@@H]3C[C@@H](F)CN3C)nc3c(F)c(-c4ccc(F)c5sc(N)nc45)c(C(F)(F)F)cc23)C1 (atropisomer, axis not shown) [Compound 21]
Test system: Avi-KRAS G12C (1-169) GppNHp/RAF1 RBD-3×FLAG (52-151) (Homo sapiens, UniProt P01116, G12C)
pIC50: < 4.70
